test.method.notes: blockers of RIG-like receptor reporter activation – cell-based, Sendai virus stimulus, luciferase, 10K MLSCN set, TLR/RLR signaling modifier project, primary screen (AID 602276);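 also: firefly luciferase from ISG56 promoter only with Renilla not read in this screen; 0% = Sendai virus plus DMSO and 100% = medium plus DMSO without virus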
experimental.context: HEK293 RL24 IRF3 luciferase reporter, at 10 µM, stronger effect = higher value
# reported inhibition; entries follow
Give the value, in units of %, as a plain number.

Example results:
Reported inhibition ( COc1ccc(N2CCN(C(=O)CCNS(=O)(=O)c3ccc(Br)s3)CC2)cc1 ) = 7.87

Reported inhibition ( Cc1cc(NC(=O)Cc2c(F)cccc2Cl)no1 ) = 14.4

Reported inhibition ( CCOC(=O)c1ccc(NC(=O)N2CCN(Cc3cccc(F)c3)CC2)cc1 ) = 5.73

Reported inhibition ( Cc1ccc(-c2nnn(CC(=O)N(CC(=O)NC3CCCCC3)c3cnc4ccccc4c3)n2)o1 ) = 21

Reported inhibition ( CN(C)C(=O)CN(C)S(=O)(=O)c1ccc(Cl)cc1 ) = 7.26

Reported inhibition ( O=C(Nc1ccon1)c1cccc(S(=O)(=O)N2CCCC2)c1 ) = 13.5

---
Reported inhibition ( Cc1c(NC(=O)C(C)Oc2ncnc3ccccc23)c(=O)n(-c2ccccc2)n1C (stereo not given) ) = -7.59

Reported inhibition ( CC1Cc2ccccc2N1CC(=O)NC(=O)NCc1ccco1 (stereo not given) ) = 16.6

----------
test.method.notes: blockers of RIG-like receptor reporter activation – cell-based, Sendai virus stimulus, luciferase, 10K MLSCN set, TLR/RLR signaling modifier project, primary screen (AID 602276);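 also: firefly luciferase from ISG56 promoter only with Renilla not read in this screen; 0% = Sendai virus plus DMSO and 100% = medium plus DMSO without virus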
experimental.context: HEK293 RL24 IRF3 luciferase reporter, at 10 µM, stronger effect = higher value
assay.readout: inhibition (%)
Give the value, in units of %, as a plain number.

Reported inhibition ( O=C(C1CCC(CNS(=O)(=O)c2cccc3cccnc23)CC1)N1CCCC1 (configuration not stated) ) = -0.546

Reported inhibition ( COc1ccc(C)cc1C(=O)CCC(=O)Nc1ccccc1N1CCOCC1 ) = 18.5

Reported inhibition ( Cc1ccc(CNC(=O)C2CC(=O)OC23CCCC3)c(C)c1 (configuration not stated) ) = 17.7

Reported inhibition ( COc1ccccc1C1N(c2ccc(F)cc2)C(=O)C2CCCN21 (configuration not stated) ) = 9.07

Reported inhibition ( Cc1ccc(S(=O)(=O)CC2CSc3nnc(C)c(=O)n32)cc1 (configuration not stated) ) = 12.3

Reported inhibition ( CCC(=O)Oc1ccc2c(C)cc(=O)oc2c1C ) = 10.7

----------
test.method.notes: reduction of polyQ htt aggregates in cells – imaging, exon1htt(103Q)mCFP cells, high-content imaging, primary screen (AID 483);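 also: compound exposure lasted 3 days before fixation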;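 as to nuclei count: percent of the per-plate median nuclei count of sample wells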
experimental.context: exon1htt(103Q)mCFP cell line, aggregate imaging, at 2 µM; measured here: cell count, toxicity
Cut-off 90% on nuclei count: below means Condition met, at or above means Condition not met.

Given CCOc1ccc2ccccc2c1/C=N/n1cncn1 , is recorded nuclei count strictly lower than 90%?
Condition not met

---
Given COc1ccc2cc(C(c3nnnn3C(C)(C)C)N3CCc4ccccc4C3)c(=O)[nH]c2c1 (centres undefined) , is recorded nuclei count strictly lower than 90%?
Condition not met

Given CCn1cc(C(=O)NCCCOC)c(=O)c2cc(S(=O)(=O)N(C)C)ccc21 , is recorded nuclei count strictly lower than 90%?
Condition met

Given CC(=O)Nc1ccc(S(=O)(=O)N2CCN(C(=O)CCC3CCCC3)CC2)cc1 , is recorded nuclei count strictly lower than 90%?
Condition not met

Given O=C(CCCN1C(=O)c2ccccc2C1=O)Oc1ccc(F)cc1 , is recorded nuclei count strictly lower than 90%?
Condition not met

----------
test.method.notes: reduction of polyQ htt aggregates in cells – imaging, exon1htt(103Q)mCFP cells, high-content imaging, primary screen (AID 483);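 also: compound exposure lasted 3 days before fixation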;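 as to nuclei count: percent of the per-plate median nuclei count of sample wells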
experimental.context: exon1htt(103Q)mCFP cell line, aggregate imaging, at 2 µM; measured here: cell count, toxicity
# reported nuclei count; entries follow
Give the value, in units of %, as a plain number.

Reported nuclei count ( CCN(C(=O)c1cccs1)c1nnc(-c2ccncc2)s1 ) = 104

Reported nuclei count ( Cc1ccc(OCC(O)Cn2c(=N)n(CCN3CCCCC3)c3ccccc32)cc1 (stereo not given) ) = 63.4

Reported nuclei count ( COc1cc(-c2nc(S(=O)(=O)c3ccccc3)c(N3CCOCC3)o2)cc(OC)c1OC ) = 108

Reported nuclei count ( CCCn1c(SCC(=O)N2CCCc3ccccc32)nnc1-c1ccccn1 ) = 100

Reported nuclei count ( Cc1cc(C)c2cc3c(ccn3C3OC[C@H](O)[C@H](O)[C@H]3O)cc2n1 (stereo not given in full) ) = 121

----------
# reported fluorescence slope; entries follow
experimental.target: Voltage-gated potassium channel subunit beta-2 (Rattus norvegicus) (UniProt P62483)
Sequence (P62483 whole entry, looked up): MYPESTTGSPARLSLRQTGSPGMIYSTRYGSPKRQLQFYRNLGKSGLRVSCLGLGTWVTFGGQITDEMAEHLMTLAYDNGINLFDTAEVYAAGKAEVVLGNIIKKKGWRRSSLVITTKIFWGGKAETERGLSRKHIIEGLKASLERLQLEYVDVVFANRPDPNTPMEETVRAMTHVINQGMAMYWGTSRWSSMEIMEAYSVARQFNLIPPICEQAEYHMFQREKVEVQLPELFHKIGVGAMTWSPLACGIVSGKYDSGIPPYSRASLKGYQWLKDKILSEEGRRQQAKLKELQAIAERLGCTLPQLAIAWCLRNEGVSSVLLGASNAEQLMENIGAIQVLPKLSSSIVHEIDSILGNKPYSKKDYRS
test.method.notes: inhibitors of rat Kvbeta2 reductase activity – biochemical, NADPH fluorescence, primary screen (AID 622);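 also: slope of raw intensity against log time taken from 70 to 1610 s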
experimental.context: recombinant KvBeta, 4-cyanobenzaldehyde reduction, at 10 µM, stronger effect = higher value
Give your answer as a number; write no unit.

Example results:
Reported fluorescence slope ( CCOC(=O)C1CCN(C(=O)Nc2ccc3nc(C)c(C)nc3c2)CC1 ) = -0.00743

Reported fluorescence slope ( CNc1ccc(C(O)(C(F)(F)F)C(F)(F)F)cc1C(O)(C(F)(F)F)C(F)(F)F ) = -0.616

Reported fluorescence slope ( CCOC(=O)c1cc2sccc2n1CC(=O)Nc1ccc2c(c1)OCCO2 ) = -0.61

Reported fluorescence slope ( Cc1cccc(NC(=O)c2cc3ccccc3o2)c1 ) = -0.506

Reported fluorescence slope ( COc1ccc(CCNc2oc(Cc3cccc4ccccc34)nc2C#N)cc1OC ) = -0.396

---
Reported fluorescence slope ( O=S(=O)(Nc1cccc2ncccc12)c1cccs1 ) = -0.486

Reported fluorescence slope ( c1ccc(Cn2nnc3c(N4CCC5(CC4)OCCO5)ncnc32)cc1 ) = -0.522

----------
test.method.notes: reduction of polyQ htt aggregates in cells – imaging, exon1htt(103Q)mCFP cells, high-content imaging, primary screen (AID 483);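 also: compound exposure lasted 3 days before fixation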
experimental.context: exon1htt(103Q)mCFP cell line, aggregate imaging, at 2 µM; stronger effect = higher value
assay.readout: inhibition of aggregation (%)
Give the value, in units of %, as a plain number.

Example results:
Reported inhibition of aggregation ( CN(C=O)CP(=O)(O)CCN1CCCC1=O ) = 19.4

Reported inhibition of aggregation ( C=CCn1c(SCC(=O)Nc2ccc3c(c2)OCO3)nc2ccccc2c1=O ) = 1.9

Reported inhibition of aggregation ( NC(=O)c1ccsc1NC(=O)COC(=O)Cc1ccsc1 ) = 17.1

Then there is this compound:
Reported inhibition of aggregation ( CCOC(=O)c1ccc(NC2OC(=O)c3ccccc32)cc1 (centres undefined) ) = 6.4

----------
test.method.notes: TLR3 IRF3 reporter activation blockers – cell-based, poly I:C stimulus, luciferase, 10K MLSCN set, primary screen (AID 602277)
experimental.context: HEK293-TLR3 RL24 IRF3 luciferase reporter, at 10 µM, stronger effect = higher value
The source made the active and inactive calls.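 How the source made its calls: active means inhibition of the reporter signal at or above 50%; inactive means inhibition below 50%.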
# reported inhibition; entries follow

Example results:
Reported inhibition ( CCc1cc2c(=O)c(-c3nc4ccccc4[nH]3)coc2c(CN2CCC(C)CC2)c1O ) = 5.36% (inactive)

Reported inhibition ( COc1ccc2c(c1)CCc1c(C(=O)N3CC4(C)CC3CC(C)(C)C4)noc1-2 (stereo unspecified) ) = 10.1% (inactive)

Reported inhibition ( Cc1cc(Nc2ccccc2F)n2ncnc2n1 ) = 12.8% (inactive)

Reported inhibition ( OC(CN1CCOCC1)Cn1c(-c2cccc(Cl)c2)nc2ccccc21 (stereo unspecified) ) = 32.2% (inactive)

---
Reported inhibition ( COc1ccc(-c2cc3nc4n(c(=O)c3s2)CCC4)cc1 ) = -34.7% (inactive)

Reported inhibition ( CCOc1ccc2c(O)csc2c1 ) = 10.6% (inactive)

----------
test.method.notes: blockers of RIG-like receptor reporter activation – cell-based, Sendai virus stimulus, luciferase, 10K MLSCN set, TLR/RLR signaling modifier project, primary screen (AID 602276);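 also: firefly luciferase from ISG56 promoter only with Renilla not read in this screen; 0% = Sendai virus plus DMSO and 100% = medium plus DMSO without virus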
experimental.context: HEK293 RL24 IRF3 luciferase reporter, at 10 µM, stronger effect = higher value
# reported inhibition; entries follow
Give the value, in units of %, as a plain number.

Example results:
Reported inhibition ( N#Cc1nc(COc2ccccc2)oc1NCCN1CCOCC1 ) = 2.21

Reported inhibition ( CCN(C(=O)Cc1c(C(=O)O)[nH]c2ccccc12)c1cc(OC)ccc1OC ) = 13.8

---
Reported inhibition ( CC(=O)c1c(NCCc2ccccc2)cc(C)oc1=O ) = -1.27

Reported inhibition ( CC(NS(=O)(=O)c1ccc(OCC(=O)N2CCOCC2)c(Cl)c1)c1ccccc1 (centres undefined) ) = 18.7

----------
experimental.target: Voltage-gated potassium channel subunit beta-2 (Rattus norvegicus) (UniProt P62483)
test.method.notes: inhibitors of rat Kvbeta2 reductase activity – biochemical, NADPH fluorescence, primary screen (AID 622);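 also: slope of raw intensity against log time taken from 70 to 1610 s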
experimental.context: recombinant KvBeta, 4-cyanobenzaldehyde reduction, at 10 µM
Active and inactive are the calls of the source.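 The calls were made as follows: active = fluorescence slope higher than the sample average by over 3 SD (cut at about -0.22 in these data, passing the limit was not always enough); inactive = the rest.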
Output constraint: value belongs to Yes for active, No for inactive

Test call for this compound, please: Cn1c(Cc2csc(N)n2)nnc1SCC(=O)NCc1ccccc1
No

Test call for this compound, please: CCCCCCn1c(CN2CCN(Cc3ccccc3)CC2)nc2c1c(=O)n(C)c(=O)n2C
No

Test call for this compound, please: O=C(c1sc2ccccc2c1Cl)N(Cc1cccs1)C1CCS(=O)(=O)C1 (stereo not given)
No

Test call for this compound, please: CS(=O)(=O)NCc1ccc(C(=O)NCc2ccccc2)cc1
No

Test call for this compound, please: Cn1c(SCC(=O)c2ccc(-c3ccccc3)cc2)nnc1-c1ccco1
No

Now look at this one.
Test call for this compound, please: Cc1cc(Cl)ccc1NC(=O)CSc1nnc(Cc2cccs2)n1Cc1ccco1
No
